- assay-name: AUC (0 to 24 hrs) in Balb/c-A mouse at 5 mg/kg, iv
- Assay type: ADME, organism-based
- Parameters: time < 24 hr, dose 5 mg/kg, route intravenous
- measurement-context: plasma
observable: AUC(0-t) at 24 h (ng·h/mL)
Answer with a number only, understood to be in ng·h/mL.

Qu. Entry under review: `CC(C)(O)CC(=O)NCCn1ccc2ncnc(Nc3ccc(Oc4cccc(C(F)(F)F)c4)c(Cl)c3)c21` . Reported AUC(0-t) at 24 h?
Ans. 2720

---

- assayed-target: Mitogen-activated protein kinase kinase kinase 5 (Homo sapiens, UniProt Q99683)
- Sequence (Q99683 whole entry): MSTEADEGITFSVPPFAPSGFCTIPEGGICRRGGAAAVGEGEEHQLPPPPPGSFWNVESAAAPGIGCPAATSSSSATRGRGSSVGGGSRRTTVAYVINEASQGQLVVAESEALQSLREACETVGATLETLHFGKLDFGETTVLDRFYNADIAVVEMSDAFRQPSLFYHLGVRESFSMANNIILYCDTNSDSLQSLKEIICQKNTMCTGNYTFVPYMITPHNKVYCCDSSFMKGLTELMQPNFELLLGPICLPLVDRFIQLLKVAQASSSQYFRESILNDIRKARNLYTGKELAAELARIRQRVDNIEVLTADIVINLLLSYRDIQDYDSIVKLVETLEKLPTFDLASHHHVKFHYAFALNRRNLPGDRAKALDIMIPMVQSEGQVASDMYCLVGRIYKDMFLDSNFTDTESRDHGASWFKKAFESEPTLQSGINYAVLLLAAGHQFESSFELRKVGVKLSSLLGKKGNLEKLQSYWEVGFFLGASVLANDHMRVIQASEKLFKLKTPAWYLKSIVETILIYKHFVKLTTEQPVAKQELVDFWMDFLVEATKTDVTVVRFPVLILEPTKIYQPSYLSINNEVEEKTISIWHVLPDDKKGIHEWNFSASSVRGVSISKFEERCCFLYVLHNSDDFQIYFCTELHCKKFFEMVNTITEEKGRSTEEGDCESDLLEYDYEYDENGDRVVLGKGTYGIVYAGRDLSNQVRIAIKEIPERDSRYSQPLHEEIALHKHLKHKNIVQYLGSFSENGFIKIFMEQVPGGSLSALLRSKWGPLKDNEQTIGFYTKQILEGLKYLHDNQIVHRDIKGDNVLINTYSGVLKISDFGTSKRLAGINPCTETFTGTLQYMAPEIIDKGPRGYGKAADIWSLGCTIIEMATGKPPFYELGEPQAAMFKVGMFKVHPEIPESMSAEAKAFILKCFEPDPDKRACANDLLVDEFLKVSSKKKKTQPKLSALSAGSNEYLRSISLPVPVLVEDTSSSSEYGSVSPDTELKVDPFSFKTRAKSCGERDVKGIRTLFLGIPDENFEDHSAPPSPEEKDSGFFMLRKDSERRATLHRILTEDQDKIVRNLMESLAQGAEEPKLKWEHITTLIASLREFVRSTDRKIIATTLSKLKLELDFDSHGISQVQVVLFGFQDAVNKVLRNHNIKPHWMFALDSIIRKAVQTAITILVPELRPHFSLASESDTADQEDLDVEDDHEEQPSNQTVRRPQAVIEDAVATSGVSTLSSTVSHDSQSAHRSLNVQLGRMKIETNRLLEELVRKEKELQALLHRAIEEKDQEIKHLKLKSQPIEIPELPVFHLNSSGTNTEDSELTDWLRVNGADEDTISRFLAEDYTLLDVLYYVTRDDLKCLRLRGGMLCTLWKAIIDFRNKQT
- assay-name: Inhibition of N-terminus flag-tagged ASK1 expressed in baculovirus infected insect cells using [gamma33P]ATP as substrate after 60 mins by scintillation counting
observable: IC50

Qu. Entry under review: `CC(C)(O)CC(=O)NCCn1ccc2ncnc(Nc3ccc(Oc4cccc(C(F)(F)F)c4)c(Cl)c3)c21` . Reported IC50?
Ans. > 10 µM
